Attribution: ChEMBL document CHEMBL1909552

Method Notes: Oral bioavailability in Sprague-Dawley rat at 1 mg/kg
Format: ADME, organism-based
Recorded Conditions: in vivo
Measurement Label: bioavailability (%)

a = C[C@@H]1COc2ccc(OC(F)F)cc2[C@H](C)N1C(=O)c1ccc(Cl)cc1
b = COc1ccc2c(c1)[C@H](C)N(C(=O)c1ccc(Cl)cc1)[C@H](C)CO2
Compare the recorded bioavailability of a and b ; state which is larger. // output: label of the selected item a

----------
Assay Target: Orexin/Hypocretin receptor type 1 (Homo sapiens)
Sequence (O43613 whole entry): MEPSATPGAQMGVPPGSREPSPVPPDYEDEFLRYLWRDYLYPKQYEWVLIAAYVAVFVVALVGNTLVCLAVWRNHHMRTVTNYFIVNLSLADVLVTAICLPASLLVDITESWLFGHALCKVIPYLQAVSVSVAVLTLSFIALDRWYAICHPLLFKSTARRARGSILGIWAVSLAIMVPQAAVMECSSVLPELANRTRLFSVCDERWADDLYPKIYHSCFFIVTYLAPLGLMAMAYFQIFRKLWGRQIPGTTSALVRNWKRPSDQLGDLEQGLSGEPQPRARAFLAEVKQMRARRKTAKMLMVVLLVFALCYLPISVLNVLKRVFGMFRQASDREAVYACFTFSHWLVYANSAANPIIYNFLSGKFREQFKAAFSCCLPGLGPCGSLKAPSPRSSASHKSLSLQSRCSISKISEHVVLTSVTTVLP
Method Notes: Antagonist activity at OX1R intracellular calcium mobilization by FLIPR assay
Assay type: functional, cell-based
Measurement Label: IC50 (nM)

Smiles Record	IC50 [nM]
C[C@@H]1COc2ccc(OC(F)F)cc2[C@H](C)N1C(=O)c1ccc(Cl)cc1	3000
COc1ccc2c(c1)[C@H](C)N(C(=O)c1ccc(Cl)cc1)[C@H](C)CO2	2600
